- Test system: ECHCG
- PROCEDURE TEXT: Post-emergence biological efficacy
- Format: in vivo
- DETAILS: Echinochloa crus-galli, 312 h, evaluated after 13 days, read-out: damage to plant (100=total damage to plant; 0=no damage to plant)
Known pest or weed control at 250 g/ha of a selection of compounds
Respond with the bare value in %.

| COMPOUND | pest or weed control at 250 g/ha, % |
| --- | --- |
| CCOC(=O)C1(C)CC(c2cc(-c3cnc4ccccc4c3)c(F)cc2Cl)=NO1 (stereo not drawn) | 30 |
| CCOC(=O)C1(C)CC(c2cc(-c3cc(F)cnc3Cl)c(F)cc2Cl)=NO1 (stereo not drawn) | 80 |

Exam item: Please give the documented pest or weed control at 250 g/ha of CCOC(=O)C1(C)CC(c2cc(-c3nccnc3C(F)(F)F)c(F)cc2Cl)=NO1 (stereo not drawn)
Marked response: 70
